- measurement-target: glutamate racemase (RacE) (Bacillus subtilis)
- Sequence (P94556 whole entry): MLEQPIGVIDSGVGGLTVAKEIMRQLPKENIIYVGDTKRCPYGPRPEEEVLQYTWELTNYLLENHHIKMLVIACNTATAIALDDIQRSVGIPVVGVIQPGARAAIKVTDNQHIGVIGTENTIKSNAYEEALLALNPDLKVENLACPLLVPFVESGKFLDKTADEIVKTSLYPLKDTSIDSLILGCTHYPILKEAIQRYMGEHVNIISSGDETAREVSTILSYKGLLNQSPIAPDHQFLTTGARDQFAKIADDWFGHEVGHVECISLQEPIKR
pKi: −log10 of the molar value.
experimental-endpoint: pKi

INSERT INTO results (structure_as_smiles, experimental_endpoint, result) VALUES
  ('O=C(O)c1cccc(C(=O)O)n1', 'pKi', 2.71);
